Record form. Attribute: DC50. Fill in for each entry.
TARGET OR SYSTEM: AR protein (Homo sapiens, UniProt P10275)
Construct: endogenous in cells; host or cells: VCaP
Sequence (P10275 whole entry): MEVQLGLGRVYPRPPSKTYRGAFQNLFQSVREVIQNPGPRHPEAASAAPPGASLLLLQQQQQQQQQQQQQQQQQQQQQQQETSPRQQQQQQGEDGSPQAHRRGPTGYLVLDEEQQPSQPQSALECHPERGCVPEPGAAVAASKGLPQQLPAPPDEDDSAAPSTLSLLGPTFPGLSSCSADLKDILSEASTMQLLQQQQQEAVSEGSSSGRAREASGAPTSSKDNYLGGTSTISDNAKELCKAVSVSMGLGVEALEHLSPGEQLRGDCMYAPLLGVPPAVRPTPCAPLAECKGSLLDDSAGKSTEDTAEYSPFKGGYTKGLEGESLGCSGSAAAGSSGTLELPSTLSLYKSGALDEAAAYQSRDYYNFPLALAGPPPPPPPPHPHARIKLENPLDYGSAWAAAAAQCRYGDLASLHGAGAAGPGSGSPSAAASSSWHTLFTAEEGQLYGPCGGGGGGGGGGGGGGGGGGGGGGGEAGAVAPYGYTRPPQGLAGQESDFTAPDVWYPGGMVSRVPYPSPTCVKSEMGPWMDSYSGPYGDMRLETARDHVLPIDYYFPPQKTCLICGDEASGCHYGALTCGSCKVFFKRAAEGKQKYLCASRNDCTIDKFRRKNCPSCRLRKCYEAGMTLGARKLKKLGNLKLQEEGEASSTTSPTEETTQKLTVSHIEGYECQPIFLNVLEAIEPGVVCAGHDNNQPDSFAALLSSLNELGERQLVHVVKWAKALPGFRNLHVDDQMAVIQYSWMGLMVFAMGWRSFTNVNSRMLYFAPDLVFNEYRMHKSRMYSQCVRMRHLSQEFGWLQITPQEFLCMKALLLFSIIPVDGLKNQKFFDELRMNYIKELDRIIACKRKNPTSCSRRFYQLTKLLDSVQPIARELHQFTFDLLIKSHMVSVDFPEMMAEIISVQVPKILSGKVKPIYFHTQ
TEST SUMMARY: Western blotting analysis of AR protein levels in VCaP cells, band quantification, DC50/DC90
Assay type: cell-based
CONDITION SUMMARY: VCaP cells, Table 6; read-out: VCaP DC50
Procedure: The appropriate cell line, e.g., prostate cancer LNCaP, Vcap, or 22RV1 cell line, was treated with Compounds of the Disclosure as indicated. The treated cells were lysed with RIPA buffer. […] GAPDH was used as a loading control. Bands were quantified with ImageJ software. […] The DC50 values were produced from Prism 8, and the DC90 values were calculated with an equation=Bottom+(Top−Bottom)/(1+10^((Log EC50−X)*HillSlope) based on DC50 and Hillslope values.

# COMPOUND, DC50
measured = [
    ("C[C@H]1CC2(CCN(c3ccc(C(=O)N4CCN(C5CCN(c6ccc7c(c6)C(=O)N(C6CCC(=O)NC6=O)C7=O)CC5)CC4)cc3F)CC2)CN1c1ccc(C#N)c(Cl)c1 (some centres unmarked) [Cpd. No. 521]", "< 1 nM"),
    ("C[C@H]1CC2(CCN(c3cnc(C(=O)N4CCC(CN5CCN(c6ccc7c(c6)C(=O)N(C6CCC(=O)NC6=O)C7=O)CC5)CC4)cn3)CC2)CN1c1ccc(C#N)c(Cl)c1 (some centres unmarked) [Cpd. No. 492]", "1 to 10 nM"),
    ("C[C@H]1CC2(CCN(c3ccc(C(=O)N4CC[C@@H](N5CCN(c6cc7c(cc6F)C(=O)N(C6CCC(=O)NC6=O)C7=O)CC5)C4)cc3)CC2)CN1c1ccc(C#N)c(Cl)c1 (some centres unmarked) [Cpd. No. 515]", "10 to 100 nM"),
    ("C[C@H]1CC2(CCN(c3ccc(C(=O)N4CC[C@@H](N5CCN(c6cc7c(cc6F)C(=O)N(C6CCC(=O)NC6=O)C7=O)CC5)C4)cc3)CC2)CN1c1ccc(C#N)c(Cl)c1 (some centres unmarked) [Cpd. No. 517]", "1 to 10 nM"),
    ("C[C@H]1CC2(CCN(c3ncc(C(=O)N4CCC(CN5Cc6cc7c(cc6C5)C(=O)N(C5CCC(=O)NC5=O)C7=O)CC4)cn3)CC2)CN1c1ccc(C#N)c(Cl)c1 (some centres unmarked) [Cpd. No. 526]", "< 1 nM"),
]

Go through the items and report each one's DC50.
1. C[C@H]1CC2(CCN(c3ccc(C(=O)N4CCC(N5CCN(c6cc7c(cc6F)C(=O)N(C6CCC(=O)NC6=O)C7=O)CC5)CC4)nn3)CC2)CN1c1ccc(C#N)c(Cl)c1 (some centres unmarked) [Cpd. No. 500]
2. C[C@H]1CC2(CCN(c3ccc(C(=O)N4CCC(N5CCN(c6ccc7c(c6)C(=O)N(C6CCC(=O)NC6=O)C7=O)CC5)CC4)cc3F)CC2)CN1c1ccc(C#N)c(Cl)c1 (some centres unmarked) [Cpd. No. 511]
3. C[C@H]1CC2(CCN(c3ccc(C(=O)N4CCN(CC5CN(c6ccc7c(c6)C(=O)N(C6CCC(=O)NC6=O)C7=O)C5)CC4)cc3F)CC2)CN1c1ccc(C#N)c(Cl)c1 (some centres unmarked) [Cpd. No. 528]

Result string:
1: 1 to 10 nM; 2: < 1 nM; 3: < 1 nM
